System: OVCAR-3 ovarian
Experiment: NCI-60 one-dose screen, 48 h (100 = growth as untreated, 0 = no growth, -100 = all killed)
Conditions: 10 µM unless noted
Method: Growth inhibition of the OVCAR-3 human tumor cell line is measured as a screen for anti-cancer activity. Cells are grown in 96 well plates and exposed to the test compound for 48 hours. Compounds are tested at a single concentration, which is 10^-5 M for most compounds. The reported endpoint is percent growth (GI% or GIPRCNT), where numbers from 0 - 100% represent growth inhibition, and numbers from -100% - 0 represent cell death. For example, a value of 40 represents 60% growth inhibition. […]
This is part of a sample that, as a whole, favours compounds with a hit. Of some 83,000 tested, about 20% had one in any assay.
Measured growth, listed per entry.
metric: growth (%)

smilesRepresentation	targetOrTestSystem	metric	measuredResult
Cc1ccc(Cl)cc1N1CCN(C(=O)[C@@H]2C[C@@H]2c2ccc(F)cc2)CC1	OVCAR-3 ovarian	growth	95.3
CCCCCCCC/C=C\CCCCCCCCOc1ccccc1CC(=O)NCC[N+]1(C)CCOCC1	OVCAR-3 ovarian	growth	101
O=C(Cn1cc(CN2CCN(c3ccnc4cc(Cl)ccc34)CC2)nn1)Nc1cccc([N+](=O)[O-])c1	OVCAR-3 ovarian	growth	87.9
N#C/C(=C\c1ccccc1Cl)c1cc2ccccc2[nH]1	OVCAR-3 ovarian	growth	101
COc1cc(Nc2nc3ccccc3cc2C(=O)Nc2ccc(F)c(F)c2)cc(OC)c1OC	OVCAR-3 ovarian	growth	10.6
COc1ccc(-c2c[nH]c(C(=O)O)c2-c2cc(OC)c(OC)c(OC)c2)cc1	OVCAR-3 ovarian	growth	-2.04
Oc1ccccc1C=Nc1ccc(N2CCN(c3ccccc3)CC2)cc1	OVCAR-3 ovarian	growth	100
COc1cc(-c2nc(SCCC(C)C)nc(Nc3ccc(F)cc3)c2C#N)cc(OC)c1OC	OVCAR-3 ovarian	growth	19.8
Cc1ccc(Nc2nc(-c3cc(O)c(C)c(C)c3O)cs2)cc1	OVCAR-3 ovarian	growth	104
O=S(=O)(Nc1cc(Sc2cccc3cccnc23)c(O)c2ccccc12)c1ccc(F)cc1	OVCAR-3 ovarian	growth	-87.6
